Biological target: KDR kinase domain (Homo sapiens, UniProt P35968)
Construct: The cytosolic kinase domain of KDR kinase was expressed as a 6 His fusion protein in Sf9 insect cells; 6 His
Sequence (P35968 834-1162 limits assumed): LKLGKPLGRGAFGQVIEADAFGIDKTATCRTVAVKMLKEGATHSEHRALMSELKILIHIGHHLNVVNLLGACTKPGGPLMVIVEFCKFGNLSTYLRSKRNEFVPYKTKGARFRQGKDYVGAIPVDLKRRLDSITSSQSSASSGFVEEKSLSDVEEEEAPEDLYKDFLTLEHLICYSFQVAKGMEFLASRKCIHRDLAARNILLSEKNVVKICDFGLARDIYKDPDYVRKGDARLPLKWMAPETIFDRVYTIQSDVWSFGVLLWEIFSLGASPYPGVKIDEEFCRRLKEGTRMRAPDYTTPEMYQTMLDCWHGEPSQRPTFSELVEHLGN
Experiment: KDR Assay (kinase ELISA, poly(Glu4;Tyr1) phosphorylation)
Settings: 3.3 μM ATP, 60 minutes room temperature
pIC50: −log10 of the molar value.
REPORTED_PROPERTY: pIC50

Task: Given the entry Clc1ccc(Nc2ccc(OCc3ccncc3)nn2)cc1 , report its measured pIC50.
Output: < 6.00

###

Target: full length KDR receptor in NIH3T3 cells (Homo sapiens)
Construct: NIH3T3 cells expressing the full length KDR receptor were grown in DMEM
Sequence (P35968 20-1356): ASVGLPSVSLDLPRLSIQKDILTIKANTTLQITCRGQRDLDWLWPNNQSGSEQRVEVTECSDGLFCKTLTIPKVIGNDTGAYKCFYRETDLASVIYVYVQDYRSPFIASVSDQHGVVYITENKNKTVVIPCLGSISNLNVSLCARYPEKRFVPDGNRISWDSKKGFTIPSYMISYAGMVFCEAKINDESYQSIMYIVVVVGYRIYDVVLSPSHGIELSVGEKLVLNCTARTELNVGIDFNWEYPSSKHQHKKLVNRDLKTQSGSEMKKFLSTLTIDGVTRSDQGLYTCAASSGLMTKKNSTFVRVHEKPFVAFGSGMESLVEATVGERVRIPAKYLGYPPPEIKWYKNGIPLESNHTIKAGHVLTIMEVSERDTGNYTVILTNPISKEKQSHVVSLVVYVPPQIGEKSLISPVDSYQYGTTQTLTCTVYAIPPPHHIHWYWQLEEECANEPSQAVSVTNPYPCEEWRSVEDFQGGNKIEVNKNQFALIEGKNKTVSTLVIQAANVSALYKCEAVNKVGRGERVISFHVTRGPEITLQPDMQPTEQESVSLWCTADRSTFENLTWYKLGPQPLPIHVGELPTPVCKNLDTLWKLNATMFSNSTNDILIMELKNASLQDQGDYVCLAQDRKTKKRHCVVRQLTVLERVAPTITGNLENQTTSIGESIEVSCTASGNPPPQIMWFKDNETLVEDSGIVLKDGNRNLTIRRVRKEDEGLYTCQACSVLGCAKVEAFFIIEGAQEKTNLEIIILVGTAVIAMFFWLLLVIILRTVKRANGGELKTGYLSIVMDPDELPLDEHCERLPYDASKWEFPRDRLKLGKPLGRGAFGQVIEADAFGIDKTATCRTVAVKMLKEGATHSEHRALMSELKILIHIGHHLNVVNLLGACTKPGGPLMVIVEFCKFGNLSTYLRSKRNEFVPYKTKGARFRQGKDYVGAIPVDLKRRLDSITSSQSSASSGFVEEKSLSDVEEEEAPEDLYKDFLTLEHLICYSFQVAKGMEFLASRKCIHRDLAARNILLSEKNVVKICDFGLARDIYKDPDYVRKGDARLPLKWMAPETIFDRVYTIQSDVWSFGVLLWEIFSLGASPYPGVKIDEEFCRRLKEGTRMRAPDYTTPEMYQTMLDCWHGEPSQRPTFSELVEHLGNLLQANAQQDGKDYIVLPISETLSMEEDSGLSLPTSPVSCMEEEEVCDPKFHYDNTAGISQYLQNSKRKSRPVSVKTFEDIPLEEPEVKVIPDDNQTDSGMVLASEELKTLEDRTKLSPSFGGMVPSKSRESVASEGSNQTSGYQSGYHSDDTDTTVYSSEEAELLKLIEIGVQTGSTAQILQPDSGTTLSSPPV
Assay: Cell mechanistic assay - Inhibition of 3T3 KDR phosphorylation
Settings: NIH3T3 cells expressing KDR, VEGF (30 ng/ml) stimulation, receptor phosphotyrosine ELISA
REPORTED_PROPERTY: IC50

Task: Given the entry Clc1ccc(Nc2ccc(OCc3ccncc3)nn2)cc1 , report its measured IC50.
Output: > 50 nM
